Recorded ED50 for the following compounds
# Tested on: Streptococcus pyogenes
# METHOD_NOTES: Subcutaneously administration into mice infected with Streptococcus pyogenes C 203
# Format: functional
# DETAILS: sc
Write it as a number; the unit mg/kg goes unstated.

• CCCCC/C=C/CCC(=O)N[C@@H]1[C@H](Oc2c3cc4cc2Oc2ccc(cc2Cl)[C@@H](O[C@@H]2O[C@@H](CO)[C@@H](O)[C@H](O)[C@@H]2NC(C)=O)[C@@H]2NC(=O)[C@H](NC(=O)[C@@H]4NC(=O)[C@H]4NC(=O)[C@@H](Cc5ccc(c(Cl)c5)O3)NC(=O)[C@H](N)c3ccc(O)c(c3)Oc3cc(O)cc4c3)c3ccc(O)c(c3)-c3c(O[C@H]4O[C@H](CO)[C@@H](O)[C@@H](O)[C@@H]4O)cc(O)cc3[C@@H](C(=O)O)NC2=O)O[C@@H](CO)[C@@H](O)[C@@H]1O = 0.12

# input for lookup
Please indicate ED50 recorded for `NCCCCCCNC(=O)[C@H]1NC(=O)[C@H]2NC(=O)[C@H](NC(=O)[C@@H]3NC(=O)[C@H]4NC(=O)[C@@H](Cc5ccc(c(Cl)c5)Oc5cc3cc(c5O)Oc3ccc(cc3Cl)[C@H]2O)NC(=O)[C@H](N)c2ccc(O)c(c2)Oc2cc(O)cc4c2)c2ccc(O)c(c2)-c2c(O)cc(O)cc21`
0.54
